Hello, the source for this data is PubChem BioAssay (NCI), in case you need it.

Consider the following compounds; for each one, report its TGI.
system: LOX IMVI melanoma; assay: NCI tumour cell line growth inhibition, 48 h

Check out these entries, answers already filled in.
• COC(=O)C1=C(C(=O)OC)C(C(=O)c2ccccc2)N2N=C(c3ccc(Cl)cc3)C=CC12 (stereo not drawn) = > 100 µM
• COC(=O)C(Cc1ccccc1)C(=O)NC(CNC(=O)OCc1ccccc1)C(=O)OCc1ccccc1 (stereo not drawn) = 36 µM
• CCCCCCCCO/N=C\c1c2c(O)c3c(O)c(C)c4c(c3c1O)C(=O)C(C)(O/C=C\C(OC)C(C)C(OC(C)=O)C(C)C(O)C(C)C(O)C(C)/C=C\C=C(\C)C(=O)N2)O4 (stereo not drawn) = 5.6 µM
• COCC1OCCN1C (stereo not drawn) = > 100 µM
• O=C1CCC(NC(=O)Cc2ccc(O)cc2)C(=O)N1 (stereo not drawn) = > 2500 µM
• c1cc2[se][se]c3c4cccc5[se][se]c(c(c1)c23)c54 = > 100 µM
• CC1=C/C(=N\N(C)C)C(C(O)(C(F)(F)F)C(F)(F)F)C(C)(C)C1 (stereo not drawn) = > 100 µM
• O=C(/C=C/c1c(O)c2ccccc2[nH]c1=O)CC(=O)C(=O)Nc1cccc(O)c1 = > 100 µM

Provide each entry's TGI from the list below.
1. CC1C(c2ccccc2)=CCON1c1ccccc1 (stereo not drawn)
2. CC/C(=C/OC)P1(=O)OC(C)(C)CN1C(C)(C)C (stereo not drawn)
3. COC1=CC(C)C2C[C@H]3O[C@H](O)C[C@H]4C(C)C(=O)C(O)C([C@@]2(C)C1=O)[C@@]34C (stereo partly drawn)
4. Fc1ccc(Nc2ccc3cc(OCCCN4CCOCC4)ccc3n2)cc1F
5. C[C@@H](Oc1cc(-c2cnn(C3CC4(CCNCC4)C3)c2)cnc1N)c1c(F)ccc(Cl)c1Cl
6. CC(=O)/C(=C/N1C(=O)CC(=O)NC1=S)C(=O)Nc1ccccc1C

Response:
["> 100 µM", "> 100 µM", "> 100 µM", "3.09 µM", "2.56 µM", "> 100 µM"]

Field: TGI. Fill in for each record below.
1. Cc1ccc(-c2cnc(NC3OC(COC(=O)c4ccccc4)C(OC(=O)c4ccccc4)C(OC(=O)c4ccccc4)C3OC(=O)c3ccccc3)s2)cc1 (stereo not drawn)
2. COc1cc(/C=C/C(=O)CC(=O)/C=C/c2ccc(OC(=O)CCNC34CC5CC(CC(C5)C3)C4)c(OC)c2)ccc1OC(=O)CCNC12CC3CC(CC(C3)C1)C2
3. CN(C)c1cccc(-c2cc(=O)c3cc4c(cc3[nH]2)OCO4)c1
4. CC(=O)Oc1cc2c(=O)oc3c(OC(C)=O)c(OC(C)=O)c(OC(C)=O)c4c(=O)oc(c1OC(C)=O)c2c34

Response:
1: > 100 µM; 2: 4.14 µM; 3: > 100 µM; 4: 32.6 µM

Need TGI for each of these compounds.
1. O=C1c2scnc2-c2nccc3c2c1nc1ccccc13
2. NC(=S)Nc1nnc(-c2ccc(-c3nnc(NC(N)=S)o3)cc2)o1
3. CCOP(=O)(CCC(O)CNc1nc(N)nc(Cl)c1N=Nc1ccc(Cl)cc1)OCC (stereo not drawn)
4. O=C1C(Br)=C(c2ccccc2)C(c2ccccc2)=C1c1ccccc1
5. CC(C)(C)c1cc(N=NC(=S)NCc2ccccc2)cc(C(C)(C)C)c1O

Response:
1: 0.508 µM; 2: > 100 µM; 3: 22.9 µM; 4: 2.94 µM; 5: > 100 µM
